Molecular target: T1, human ALPPL2 (recombinant protein) (human, UniProt P10696 20-503, limits assumed)
T1 construct: biotinylated where captured on streptavidin
T1 sequence (P10696 20-503 limits assumed): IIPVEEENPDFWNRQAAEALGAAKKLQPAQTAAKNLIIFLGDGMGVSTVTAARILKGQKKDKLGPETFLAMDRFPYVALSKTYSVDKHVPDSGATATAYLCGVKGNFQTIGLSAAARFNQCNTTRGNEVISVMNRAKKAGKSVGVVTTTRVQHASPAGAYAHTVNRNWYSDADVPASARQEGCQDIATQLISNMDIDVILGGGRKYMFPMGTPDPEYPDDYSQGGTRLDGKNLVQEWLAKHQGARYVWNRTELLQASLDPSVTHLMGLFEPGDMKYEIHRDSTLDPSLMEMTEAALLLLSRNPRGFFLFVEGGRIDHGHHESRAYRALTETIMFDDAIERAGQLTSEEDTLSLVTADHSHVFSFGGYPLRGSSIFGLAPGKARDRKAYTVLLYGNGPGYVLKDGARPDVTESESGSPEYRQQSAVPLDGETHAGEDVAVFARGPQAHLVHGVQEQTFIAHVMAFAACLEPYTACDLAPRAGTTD
Assay: screen of rabbit B-cell clones by ELISA and FACS
outcome-measure: binding result

AB2C103 (antibody, V domains shown, Rabbit antibody cloned from a single B cell) VH: QSLEESGGDLVKPGASLTLTCTASGFDFSSYYWICWVRQAPGKGLEWIACIYGGSSGSTYYATWAKGRFTISETSSTTVTLQMTSLTAADMATYFCARSLYTWRYADYAASTLNLWGPGTLVTVSS VL: AVLTQTPSPVSAAVGGTVSISCQSSQSVYNVNLLAWYQQKPGQPPKLLIYETSKLESGVPSRFSGSGSGTQFTLTISDVQCDDAATYYCAGGYSSSKDNSFGGGTEVVVK | binds
AB2C128 (antibody, V domains shown, Rabbit antibody cloned from a single B cell) VH: QSLEESGGDLVKPGASLTLTCTASGFSFSSSYWIYWVRQAPGKGLEWIACIYTASRGSIYYASWTKGRFTISKTSSTTVTLQMTSLTAADTATYFCARGPDYTYGYIGDALTRLDLWGQGTLVTVSS VL: AVLTQTPSPVSAAVGGTVSISCQSSQSVYDNNWLAWYQQKAGQPPKLLIYAASTLSSGVPSRFKGSGSGIEFTLTISDVQCDDAATYYCAGGYSSTSDIEDNTFGGGTEVVVK | binds
AB1C11 (antibody, V domains shown, Rabbit antibody cloned from a single B cell) VH: QSLEESGGDLVKPGASLTLTCKASGFTISSIWICWVRQAPGKGLEWIACIYAGSDGGSYYASWARGRFTISKTSSTTVTLQMTSLTAADTATYFCARASNSWQYGYAGYGNYKDYFNLWGPGTLVTVSS VL: FELTQTPSSVEAVVGGTVTINCQASESISNLLAWYQQKSGQPPKVLIYKASALPSGVSSRFKGSGSGTEFTLTISDLECADAATYYCQSYYGSSDTGNTFGGGTEVVVK | binds
